target: Oct-1 POU domain (POU-specific domain and homeodomain) (UniProt P14859 P14859:280-438); assay: EMSA; 10 mM Hepes pH 7.9, 50 mM KCl, 0.5 mM EDTA, 30 C; apparent Kd
Sequence (P14859 280-438, one chain of several): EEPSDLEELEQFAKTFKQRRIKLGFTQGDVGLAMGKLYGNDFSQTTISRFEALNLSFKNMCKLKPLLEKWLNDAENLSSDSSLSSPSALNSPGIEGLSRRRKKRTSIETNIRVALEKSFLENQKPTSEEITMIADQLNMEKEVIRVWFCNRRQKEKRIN
endpoint: Kd (pM)
Record the value in pM, omitting the unit from your answer.

Give the value of Kd reported for the following: Oct-1 octamer site probe (dsDNA) DNA 1: CCTCGAGGTCATTTGCATACTAGGTACC DNA 2: GGTACCTAGTATGCAAATGACCTCGAGG 180
